- ASSAY_INFO: CCTE_Padilla_ZF_Score.General: CCTE's 144 Hour Post-fertilization zebrafish Assay Score for General Malformation, Padilla Lab (AID 2284411)
The source made the active and inactive calls. Rule for the calls: active = hit-call score of the fitted dose curve at least 0.9, where 1 is the maximum; inactive = score below 0.9.
QUANTITY_KIND: AC50

INSERT INTO results (molecule, recorded_result) VALUES
  ('FC(F)C(F)(F)COCC1CO1 (stereo unspecified)', '9.44 µM (active)'),
  ('OC(O)(C(F)C(O)(O)C(F)(F)F)C(F)(F)F', '32.4 µM (active)'),
  ('OCCC(F)(F)C(F)(F)C(F)(F)C(F)(F)F', 'inactive'),
  ('S=P(N1CC1)(N1CC1)N1CC1', 'inactive'),
  ('FC(F)=C(F)C(F)(F)C(F)(F)C(F)(F)C(F)(F)C(F)(F)C(F)(F)F', 'inactive'),
  ('O=C(Cl)C(F)(F)C(F)(F)C(F)(F)C(=O)Cl', 'inactive');
